PROTOCOL NOTES: NCI Yeast Anticancer Drug Screen. Data for the cln2 rad14 strain (AID 165);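 further: 0% = growth equal to vehicle treated cultures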
CONDITION SET: S. cerevisiae cln2 rad14 strain, at 50.0 µM (retest, dose inferred, filed as 5.0), stronger effect = higher value
Compounds without any hit were thinned out: in the full panel of roughly 79,000, 15% have a hit.
Reported growth inhibition is given for each of the following compounds.
VALUE KIND: growth inhibition (%)

{"columns": ["COMPOUND", "REPORTED"],
 "data": [
  ["O=S(=O)(Nc1ccccc1C(F)(F)F)c1ccc(F)cc1", 69],
  ["CC(=O)Nc1ccc(-c2ccccc2)cc1[N+](=O)[O-]", -7],
  ["CC1=C(C)C1[N+](=O)[O-]", 68],
  ["Cc1ccc(NC(=O)Oc2ccc(OC(=O)Cc3ccccc3)cc2)cc1NC(=O)Oc1ccc(OC(=O)Cc2ccccc2)cc1", 93],
  ["COc1ccccc1NC(=O)CC(=O)N1N=C(C)C(N=Nc2ccc(I)cc2)C1=O (stereo not given)", 20],
  ["C1=NC(N(Cc2ccccc2)Cc2ccccc2)N(Cc2ccccc2)N1 (stereo not given)", 95],
  ["Fc1ccc(CN2COc3c(ccc4cccnc34)C2)cc1", 70],
  ["O=S(=O)(Nc1ccccc1)c1ccccc1C(O)(c1ccccc1)c1ccccc1", 82],
  ["COc1ccc2c(c1)S(=O)(=O)C(c1ccccc1)=CC2=O", 99],
  ["COc1cc2c(cc1O)CCN[C@@]21CS[C@H]2c3c(OC(C)=O)c(C)c4c(c3C(COC1=O)N1C2C2c3c(cc(C)c(OC)c3O)CC([C@@H]1O)N2C)OCO4 (stereo not given in full)", 99]
]}

----------
PROTOCOL NOTES: NCI Yeast Anticancer Drug Screen. Data for the bub3 strain (AID 167)
CONDITION SET: S. cerevisiae bub3 mutant strain, at 50.0 µM (retest, dose inferred, filed as 5.0), stronger effect = higher value
About 79,000 compounds went through this panel and 15% of them were active in at least one assay; those are over-represented in the sample as a whole.
Returns T if the recorded growth inhibition is greater than or equal to 90%, and F otherwise.

{"columns": ["COMPOUND", "CLASS"],
 "data": [
  ["CC(=O)OC1CCC2(C)C(=CCC3C2CCC2(C)C3CC(C(N)=O)C2C(C)=O)C1 (configuration not stated)", "T"],
  ["S=C(N/N=C/c1ccccn1)N1CC2CCC(CC2)C1", "T"],
  ["CC1(C)OC2C(CO)OC(n3ncc(=S)[nH]c3=O)C2O1 (configuration not stated)", "F"],
  ["c1ccc([P+](C[P+](c2ccccc2)(c2ccccc2)c2ccccc2)(c2ccccc2)c2ccccc2)cc1", "T"],
  ["Cc1c(O)/c(=C\\O)c2nc3c(=O)ccc(C(=O)NCCN(C)C)c3[nH]c2c1=O", "T"],
  ["CC(=O)OC(C)(C)N=Nc1ccc(Br)cc1", "T"],
  ["CCCOCCC#N", "F"],
  ["COc1ccccc1C(C)c1ccc2ccccc2c1C(=O)O (configuration not stated)", "F"],
  ["N#CC1Sc2ccccc2N1C(=O)Oc1ccccc1 (configuration not stated)", "T"],
  ["SCCc1ccccn1", "F"],
  ["CC1(C)CCN(CCOC(=O)C(c2ccccc2)C2C=CCCC2)C1 (configuration not stated)", "F"],
  ["Cc1cc(CN(Cc2ccccc2)Cc2nc3ccccc3[nH]2)c(O)c(CN(Cc2nc3ccccc3[nH]2)Cc2nc3ccccc3[nH]2)c1", "F"],
  ["CCOC(=O)C(C=O)(C=O)c1ccccc1", "F"],
  ["N#CC1(C#N)C(C#N)(C#N)C12CCCCCC2", "F"]
]}
